Where do the numbers come from? From the Human Domainome abundance scans (Beltran et al. 2025).

B1: Pituitary-specific positive transcription factor 1, residues 130 to 198; numbered along this chain, P28069 (parent)
chain: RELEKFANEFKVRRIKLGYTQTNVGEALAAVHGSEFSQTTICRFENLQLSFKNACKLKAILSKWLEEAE

- Variants of: B1
- assay_explanation: abundance fitness (aPCA) (normalised: wild type 0, dead -1); higher = more abundant; growth selection in yeast, the domain comes from the species named
- setup_conditions: Homo sapiens
readout_kind: abundance fitness
Write the value as a bare number.

Q. In one line, give reported abundance fitness of the entry `K16H` .
A. -0.786

Q. In one line, give reported abundance fitness of the entry `L47C` .
A. 0.155

Q. In one line, give reported abundance fitness of the entry `K52Q` .
A. 0.022

Q. In one line, give reported abundance fitness of the entry `S50W` .
A. -0.126

Q. In one line, give reported abundance fitness of the entry `E26G` .
A. -0.771

Q. In one line, give reported abundance fitness of the entry `G25N` .
A. -0.911

Q. In one line, give reported abundance fitness of the entry `E4F` .
A. -0.316

Q. In one line, give reported abundance fitness of the entry `K11R` .
A. -0.021

Q. In one line, give reported abundance fitness of the entry `N8T` .
A. -0.04

Q. In one line, give reported abundance fitness of the entry `T39I` .
A. -0.312

Q. In one line, give reported abundance fitness of the entry `I41D` .
A. -0.758

Q. In one line, give reported abundance fitness of the entry `A30H` .
A. -0.357

Q. In one line, give reported abundance fitness of the entry `E35N` .
A. -0.165

Q. In one line, give reported abundance fitness of the entry `G25R` .
A. -0.813

Q. In one line, give reported abundance fitness of the entry `S34I` .
A. -0.171

Q. In one line, give reported abundance fitness of the entry `E4V` .
A. -0.072

Q. In one line, give reported abundance fitness of the entry `L65W` .
A. -0.719

Q. In one line, give reported abundance fitness of the entry `F51W` .
A. -0.042

Q. In one line, give reported abundance fitness of the entry `T39Q` .
A. 0.13

Q. In one line, give reported abundance fitness of the entry `S37W` .
A. -0.925

Q. In one line, give reported abundance fitness of the entry `Y19R` .
A. -0.718

Q. In one line, give reported abundance fitness of the entry `E45W` .
A. -0.762

Q. In one line, give reported abundance fitness of the entry `W64L` .
A. -0.795

Q. In one line, give reported abundance fitness of the entry `Q21I` .
A. -0.246

Q. In one line, give reported abundance fitness of the entry `N46W` .
A. -0.851

Q. In one line, give reported abundance fitness of the entry `F6C` .
A. -0.992

Q. In one line, give reported abundance fitness of the entry `C55I` .
A. 0.046

Q. In one line, give reported abundance fitness of the entry `S37D` .
A. 0.199

Q. In one line, give reported abundance fitness of the entry `N23E` .
A. 0.352

Q. In one line, give reported abundance fitness of the entry `F10K` .
A. -0.721

Q. In one line, give reported abundance fitness of the entry `T22N` .
A. -0.063

Q. In one line, give reported abundance fitness of the entry `T40E` .
A. -0.193

Q. In one line, give reported abundance fitness of the entry `N46H` .
A. -0.545

Q. In one line, give reported abundance fitness of the entry `G25L` .
A. -0.692

Q. In one line, give reported abundance fitness of the entry `E26W` .
A. -0.493

Q. In one line, give reported abundance fitness of the entry `C55Y` .
A. 0.012

Q. In one line, give reported abundance fitness of the entry `K56G` .
A. -0.341

Q. In one line, give reported abundance fitness of the entry `I41C` .
A. -0.444

Q. In one line, give reported abundance fitness of the entry `K56D` .
A. -0.366

Q. In one line, give reported abundance fitness of the entry `Q38T` .
A. 0.277

Q. In one line, give reported abundance fitness of the entry `S37P` .
A. -0.544

Q. In one line, give reported abundance fitness of the entry `T22I` .
A. -0.525

Q. In one line, give reported abundance fitness of the entry `N53C` .
A. -0.013

Q. In one line, give reported abundance fitness of the entry `E66Q` .
A. -0.193

Q. In one line, give reported abundance fitness of the entry `V31Q` .
A. -0.033

Q. In one line, give reported abundance fitness of the entry `V24I` .
A. -0.545
